Tested on: YAe-62 TCR
Assay: Binding of fluorescent soluble YAe-62 αβTCR to SF9 cells displaying IA^b-peptide (flow cytometry)
Set-up: species or system mouse
Details: IA^b-peptide displayed on baculovirus-infected SF9 cells, fluorescent soluble αβTCR
Assignment: determine reported YAe-62 TCR Binding (% of p3K) for the given substances.

INPUT: Please look up its YAe-62 TCR Binding (% of p3K): F E A Y T A R A R T A V [SEQ ID NO:25] (FEAYTARARTAV)
OUTPUT: 58.3 % of p3K

INPUT: Please look up its YAe-62 TCR Binding (% of p3K): F E A E K A K A L T A V (FEAEKAKALTAV; synthetic peptide motif) [SEQ ID NO:28]
OUTPUT: 49.6 % of p3K

INPUT: Please look up its YAe-62 TCR Binding (% of p3K): F E A L S A K A N T A V (FEALSAKANTAV; synthetic peptide motif) [SEQ ID NO:31]
OUTPUT: 33.3 % of p3K

INPUT: Please look up its YAe-62 TCR Binding (% of p3K): F E A H T A L A P R A V (FEAHTALAPRAV) [SEQ ID NO:23]
OUTPUT: 80.4 % of p3K

INPUT: Please look up its YAe-62 TCR Binding (% of p3K): F E A F M A R A K A A V (FEAFMARAKAAV; synthetic peptide motif) [SEQ ID NO:21]
OUTPUT: 107.5 % of p3K

INPUT: Please look up its YAe-62 TCR Binding (% of p3K): F E A Q G A L A N I A V (FEAQGALANIAV; synthetic peptide motif) [pEα, negative control, reference compound]
OUTPUT: 0.3 % of p3K

INPUT: Please look up its YAe-62 TCR Binding (% of p3K): F E A L Y A K A L T A V (FEALYAKALTAV; synthetic peptide motif) [SEQ ID NO:19]
OUTPUT: 98.7 % of p3K

INPUT: Please look up its YAe-62 TCR Binding (% of p3K): F E A R E A K A L A A V (FEAREAKALAAV; synthetic peptide motif) [SEQ ID NO:32]
OUTPUT: 27.0 % of p3K

INPUT: Please look up its YAe-62 TCR Binding (% of p3K): F E A Q V A H A L P A V (FEAQVAHALPAV; synthetic peptide motif) [SEQ ID NO:29]
OUTPUT: 48.6 % of p3K

INPUT: Please look up its YAe-62 TCR Binding (% of p3K): F E A T T A R A L T A V (FEATTARALTAV; synthetic peptide motif) [SEQ ID NO:27]
OUTPUT: 52.0 % of p3K

INPUT: Please look up its YAe-62 TCR Binding (% of p3K): F E A A L A R A V P A V (FEAALARAVPAV; synthetic peptide motif) [SEQ ID NO:33]
OUTPUT: 23.4 % of p3K

INPUT: Please look up its YAe-62 TCR Binding (% of p3K): F E A S K A S A A V A V (FEASKASAAVAV; synthetic peptide motif) [SEQ ID NO:34]
OUTPUT: 13.0 % of p3K

INPUT: Please look up its YAe-62 TCR Binding (% of p3K): F E A R L A S A G K A V (FEARLASAGKAV; synthetic peptide motif) [SEQ ID NO:35]
OUTPUT: 2.6 % of p3K

INPUT: Please look up its YAe-62 TCR Binding (% of p3K): F E A Q K A K A N K A V (FEAQKAKANKAV; synthetic peptide motif) [p3K, positive control]
OUTPUT: 100.0 % of p3K

INPUT: Please look up its YAe-62 TCR Binding (% of p3K): F E A L P A R A A A A V (FEALPARAAAAV) [SEQ ID NO:22]
OUTPUT: 70.4 % of p3K

INPUT: Please look up its YAe-62 TCR Binding (% of p3K): F E A R T A H A R N A V (FEARTAHARNAV; synthetic peptide motif) [SEQ ID NO:37]
OUTPUT: 1.4 % of p3K

INPUT: Please look up its YAe-62 TCR Binding (% of p3K): F E A E R A R A A S A V (FEAERARAASAV; synthetic peptide motif) [SEQ ID NO:36]
OUTPUT: 2.3 % of p3K

INPUT: Please look up its YAe-62 TCR Binding (% of p3K): F E A S L A R A R S A V (FEASLARARSAV) [SEQ ID NO:24]
OUTPUT: 76.2 % of p3K

INPUT: Please look up its YAe-62 TCR Binding (% of p3K): F E A F P A K A L R A V (FEAFPAKALRAV; synthetic peptide motif) [SEQ ID NO:30]
OUTPUT: 38.5 % of p3K

INPUT: Please look up its YAe-62 TCR Binding (% of p3K): F E A R C A K A S T A V (FEARCAKASTAV; synthetic peptide motif) [SEQ ID NO:20]
OUTPUT: 102.5 % of p3K

INPUT: Please look up its YAe-62 TCR Binding (% of p3K): F E A P Y A Q A P H A V (FEAPYAQAPHAV; synthetic peptide motif) [SEQ ID NO:38]
OUTPUT: 1.3 % of p3K

INPUT: Please look up its YAe-62 TCR Binding (% of p3K): F E A Y T A R A R T A V [SEQ ID NO:26] (FEAYTARARTAV; synthetic peptide motif)
OUTPUT: 54.9 % of p3K
